Could you please report measured IC50 for the items listed next?
molecular target: Metabotropic glutamate receptor 5 (Homo sapiens, UniProt P41594); assay: Antagonist activity at human mGluR5 expressed in CHO cells assessed as glutamate induced calcium mobilization
Sequence (P41594 whole entry): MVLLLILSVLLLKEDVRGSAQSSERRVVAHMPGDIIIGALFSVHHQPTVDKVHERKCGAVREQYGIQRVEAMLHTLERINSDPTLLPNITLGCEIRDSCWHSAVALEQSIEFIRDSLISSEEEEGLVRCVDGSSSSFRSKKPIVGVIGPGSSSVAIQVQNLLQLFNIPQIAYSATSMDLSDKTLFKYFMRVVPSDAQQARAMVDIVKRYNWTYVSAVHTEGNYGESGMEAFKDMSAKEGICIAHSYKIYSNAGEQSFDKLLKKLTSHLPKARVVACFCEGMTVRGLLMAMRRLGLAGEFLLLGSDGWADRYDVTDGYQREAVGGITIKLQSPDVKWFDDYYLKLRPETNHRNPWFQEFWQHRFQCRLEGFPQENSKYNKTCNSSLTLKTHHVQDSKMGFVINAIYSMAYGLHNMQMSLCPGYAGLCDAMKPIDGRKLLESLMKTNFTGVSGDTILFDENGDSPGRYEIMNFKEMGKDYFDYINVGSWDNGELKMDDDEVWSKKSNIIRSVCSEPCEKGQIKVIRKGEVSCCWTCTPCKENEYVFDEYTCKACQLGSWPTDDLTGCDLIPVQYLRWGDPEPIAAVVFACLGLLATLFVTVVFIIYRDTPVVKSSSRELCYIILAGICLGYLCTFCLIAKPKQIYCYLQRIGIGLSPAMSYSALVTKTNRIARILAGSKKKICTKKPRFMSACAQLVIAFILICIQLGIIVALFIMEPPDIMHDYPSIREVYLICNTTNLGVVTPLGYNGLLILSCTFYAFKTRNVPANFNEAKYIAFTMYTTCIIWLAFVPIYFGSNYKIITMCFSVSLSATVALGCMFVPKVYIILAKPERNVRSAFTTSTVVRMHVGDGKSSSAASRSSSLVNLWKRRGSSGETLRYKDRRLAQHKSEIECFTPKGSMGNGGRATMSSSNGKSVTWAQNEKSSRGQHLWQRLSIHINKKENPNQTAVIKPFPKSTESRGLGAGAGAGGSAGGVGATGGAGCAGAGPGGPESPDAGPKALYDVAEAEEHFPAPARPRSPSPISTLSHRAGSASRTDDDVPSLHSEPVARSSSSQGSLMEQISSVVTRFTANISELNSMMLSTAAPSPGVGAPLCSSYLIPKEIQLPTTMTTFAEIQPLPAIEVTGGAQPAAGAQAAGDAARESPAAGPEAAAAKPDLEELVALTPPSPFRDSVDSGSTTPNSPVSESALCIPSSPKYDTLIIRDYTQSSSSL

Test item Cc1c([C@H](C)OC(=O)Nc2ccccc2)sc2ncnn12 ; Metabotropic glutamate receptor 5 (Homo sapiens, UniProt P41594); reported IC50 was > 10 µM

List reported IC50 for each of these compounds:
1. Cc1c(C(C)OC(=O)Nc2ccccc2)sc2ncnn12 (stereo not given)
2. Cc1c(C(C)OC(=O)N(C)c2ccccc2)sc2ncnn12 (stereo not given)

Output:
> 31.6 µM
> 31.6 µM

Give IC50 for all compounds that follow.
1. O=C(Nc1ccccc1)OCc1cn2ncnc2s1
2. Cc1c(COC(=O)Nc2ccccc2)sc2ncnn12

Output:
1: > 31.6 µM; 2: > 31.6 µM
